# credit: paper PMC2726284

- test_target: EmrE (Escherichia coli, UniProt P23895)
- Construct: 6xHis-tagged EmrE, purified, detergent (DDM)-solubilized
- Sequence (P23895 whole entry): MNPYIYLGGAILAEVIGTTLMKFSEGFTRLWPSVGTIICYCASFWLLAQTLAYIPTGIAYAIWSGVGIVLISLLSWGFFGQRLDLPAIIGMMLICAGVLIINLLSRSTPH
- assay_protocol: [3H]TPP+ radioligand competition; exchange in 2-D crystals and cryo-EM projection map
- Assay type: binding
Reported pKi is given for each of the following compounds.
Would you please state pKi, meaning minus log10 of the concentration in mol/L, as a bare number?

Cc1cc(N)c2ccccc2[n+]1CCCCCCCCCC[n+]1c(C)cc(N)c2ccccc21
7.08

IN: Identify pKi associated with the compound CC[N+](C)(CC)CCC[n+]1c(-c2ccccc2)c2cc(N)ccc2c2ccc(N)cc21
OUT: 7.72

----------
- test_target: EmrE (Escherichia coli)
- Construct: 6xHis-tagged EmrE, purified, detergent (DDM)-solubilized
- assay_protocol: [3H]TPP+ radioligand competition; cryo-EM projection structure of 2-D co-crystals at […] Å
- Assay type: binding
reported_property: Ki (µM)
Please give a number only; it is taken to be in µM.

IN: Give Ki for CC[n+]1c(-c2ccccc2)c2cc(N)ccc2c2ccc(N)cc21 tested on EmrE (Escherichia coli).
OUT: 1
